Source: paper PMC12056058

molecular target: Fis1 (mitochondrial fission protein 1), cytosolic domain (Homo sapiens, UniProt Q9Y3D6, T34D); construct: cytosolic domain, C-terminal HRV 3C site and His6 tag (cut off), codon optimized, E. coli BL21(DE3); first 30 residues disordered in mutant crystals; experiment: CPM thiol fluorescence competition; conditions: read-out: apparent IC50
Test readout: IC50 (µM)

P = CN(CCCN1c2ccccc2Sc2ccccc21)C(=O)CCl
Q = C=CC(=O)N(C)CCCN1c2ccccc2Sc2ccccc21
-- ask Lab note: check whether P or Q shows the higher recorded IC50. Please identify the chosen entry by its label.
-- reply Q
